// pIC50 lookup, one value per entry
target: α-glucosidase; experiment: α-Glucosidase inhibition assay (p-NPG substrate); conditions: mean ± SD, n = 4
pIC50: −log10 of the molar value.

{"compound": "C=CCc1c(O)c(OC)cc2oc3ccccc3c(=O)c12", "test.system": "α-glucosidase", "censoring.sign": "=", "pIC50": 3.71}
{"compound": "COc1cc2oc3ccccc3c(=O)c2cc1OCCCCn1ccnc1-c1ccccc1 [Compound 10b]", "test.system": "α-glucosidase", "censoring.sign": "=", "pIC50": 3.67}
{"compound": "COC(=O)/C(=C/N(C)C)Oc1cc2c(=O)c3ccccc3oc2cc1OC", "test.system": "α-glucosidase", "censoring.sign": "<", "pIC50": 3.40}
{"compound": "C=CCc1c(OCC(O)Cn2ccnc2-c2ccccc2)c(OC)cc2oc3ccccc3c(=O)c12 (stereo not drawn) [Compound 12e]", "test.system": "α-glucosidase", "censoring.sign": "=", "pIC50": 3.98}
{"compound": "COc1cc2oc3ccccc3c(=O)c2cc1OCC1CO1 (stereo not drawn) [Compound 11a]", "test.system": "α-glucosidase", "censoring.sign": "<", "pIC50": 3.40}
{"compound": "C=CCc1c(OCC(O)Cn2ccnc2-c2ccc(Cl)cc2)c(OC)cc2oc3ccccc3c(=O)c12 (stereo not drawn) [Compound 12f]", "test.system": "α-glucosidase", "censoring.sign": "=", "pIC50": 4.14}

###

// inhibition at 100 µM lookup, one value per entry
target: α-amylase (Sus scrofa, UniProt P00690); construct: purchased Sigma-Aldrich; host or cells: porcine pancreas; assay: α-Amylase inhibition assay (starch/DNS); format: biochemical, porcine; conditions: 100 µM; mean ± SD, n = 4; NI = no inhibition
Sequence (P00690 16-511): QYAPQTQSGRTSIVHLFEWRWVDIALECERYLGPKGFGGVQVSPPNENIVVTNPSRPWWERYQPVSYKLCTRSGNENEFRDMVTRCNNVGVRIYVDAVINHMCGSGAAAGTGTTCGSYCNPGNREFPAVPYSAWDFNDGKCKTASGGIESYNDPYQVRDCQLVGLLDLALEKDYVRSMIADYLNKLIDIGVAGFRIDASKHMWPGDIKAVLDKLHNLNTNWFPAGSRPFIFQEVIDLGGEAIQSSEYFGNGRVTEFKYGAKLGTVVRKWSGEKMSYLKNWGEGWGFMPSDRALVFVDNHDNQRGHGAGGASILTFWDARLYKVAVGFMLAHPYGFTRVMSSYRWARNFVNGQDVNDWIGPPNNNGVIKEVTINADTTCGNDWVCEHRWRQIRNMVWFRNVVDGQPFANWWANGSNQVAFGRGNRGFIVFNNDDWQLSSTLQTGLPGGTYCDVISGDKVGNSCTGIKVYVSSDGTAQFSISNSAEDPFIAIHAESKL
measured.metric: inhibition at 100 µM

{"compound": "COc1cc2oc3ccccc3c(=O)c2cc1OCCCCBr", "measured.metric": "inhibition at 100 µM", "endpoint.result": "62.9%"}
{"compound": "COc1cc2oc3ccccc3c(=O)c2c2c1OC(C)(C)C=C2", "measured.metric": "inhibition at 100 µM", "endpoint.result": "< 0%"}
{"compound": "COc1cc2oc3ccccc3c(=O)c2cc1OCC(=O)c1ccc(Cl)cc1", "measured.metric": "inhibition at 100 µM", "endpoint.result": "64.8%"}
{"compound": "COc1cc2oc3ccccc3c(=O)c2cc1O [Compound 1, 2-Hydroxy-3-methoxy-9H-xanthen-9-one]", "measured.metric": "inhibition at 100 µM", "endpoint.result": "98.7%"}
{"compound": "C=CCc1c(OCCCCn2ccnc2)c(OC)cc2oc3ccccc3c(=O)c12 [Compound 10d]", "measured.metric": "inhibition at 100 µM", "endpoint.result": "< 0%"}
{"compound": "COc1cc2oc3ccccc3c(=O)c2cc1OCCCCn1ccnc1-c1ccc(Cl)cc1 [Compound 10c]", "measured.metric": "inhibition at 100 µM", "endpoint.result": "99.5%"}
{"compound": "C=CCc1c(OCCCCn2ccnc2-c2ccc(Cl)cc2)c(OC)cc2oc3ccccc3c(=O)c12 [Compound 10f]", "measured.metric": "inhibition at 100 µM", "endpoint.result": "93.3%"}
{"compound": "C=CCc1c(OCC(O)Cn2ccnc2)c(OC)cc2oc3ccccc3c(=O)c12 (centres unmarked) [Compound 12d]", "measured.metric": "inhibition at 100 µM", "endpoint.result": "1.5%"}

###

target: α-amylase (Sus scrofa, UniProt P00690); construct: purchased Sigma-Aldrich; host or cells: porcine pancreas; experiment: α-Amylase inhibition assay (starch/DNS); assay type: biochemical, porcine; conditions: mean ± SD, n = 4; compounds precipitate at 200 µM;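 further: reducing sugar measured by DNS colour at 540 nm, inhibition relative to enzyme reaction lacking test compound, blank without enzyme subtracted for background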
measured.metric: IC50

{"molecule": "C=CCc1c(OCC(=O)c2ccc(Cl)cc2)c(OC)cc2oc3ccccc3c(=O)c12", "endpoint.result": "68.1 µM"}
{"molecule": "COc1cc2oc3ccccc3c(=O)c2cc1OCC(O)Cn1ccnc1-c1ccc(Cl)cc1 (stereo not shown) [Compound 12c]", "endpoint.result": "> 200 µM"}
{"molecule": "COc1cc2oc3ccccc3c(=O)c2cc1OCCCCn1ccnc1-c1ccc(Cl)cc1 [Compound 10c]", "endpoint.result": "5.4 µM"}
{"molecule": "COc1cc2oc3ccccc3c(=O)c2cc1OCCCCn1ccnc1-c1ccccc1 [Compound 10b]", "endpoint.result": "> 200 µM"}

###

biological target: α-glucosidase; assay: α-Glucosidase inhibition assay (p-NPG substrate); settings: mean ± SD, n = 4
measured.metric: log10 IC50 (log10 of the value in µM)

{"compound": "COc1cc2oc3ccccc3c(=O)c2cc1OCC(O)Cn1ccnc1-c1ccccc1 (stereo not shown) [Compound 12b]", "endpoint.result": 2.05}
{"compound": "COc1cc2oc3ccccc3c(=O)c2cc1OCC(O)Cn1ccnc1-c1ccc(Cl)cc1 (stereo not shown) [Compound 12c]", "endpoint.result": 2.32}
{"compound": "C=CCc1c(OCCCCn2ccnc2-c2ccc(Cl)cc2)c(OC)cc2oc3ccccc3c(=O)c12 [Compound 10f]", "endpoint.result": 2.16}
{"compound": "C=CCc1c(OCCCCBr)c(OC)cc2oc3ccccc3c(=O)c12", "endpoint.result": 0.60}
{"compound": "C=CCc1c(OCC(=O)c2ccc(Cl)cc2)c(OC)cc2oc3ccccc3c(=O)c12", "endpoint.result": 1.11}
{"compound": "C=CCc1c(OCC2CO2)c(OC)cc2oc3ccccc3c(=O)c12 (stereo not shown) [Compound 11b]", "endpoint.result": 2.08}
{"compound": "COc1cc2oc3ccccc3c(=O)c2cc1OCC(=O)c1ccc(Cl)cc1", "endpoint.result": 1.20}

###

system: α-glucosidase; test: α-Glucosidase inhibition assay (p-NPG substrate); type: biochemical, Saccharomyces cerevisiae; details: 400 µM; mean ± SD, n = 4
// α-Glucosidase Inhibition (%) at 400 µM lookup, one value per entry

{"compound": "COc1cc2oc3ccccc3c(=O)c2cc1OCC(O)Cn1ccnc1-c1ccc(Cl)cc1 (stereo not drawn) [Compound 12c]", "α-Glucosidase Inhibition (%) at 400 µM": 97.5}
{"compound": "C=CCc1c(OCCCCn2ccnc2-c2ccc(Cl)cc2)c(OC)cc2oc3ccccc3c(=O)c12 [Compound 10f]", "α-Glucosidase Inhibition (%) at 400 µM": 99.4}
{"compound": "COc1cc2oc3ccccc3c(=O)c2cc1OCCCCn1ccnc1-c1ccccc1 [Compound 10b]", "α-Glucosidase Inhibition (%) at 400 µM": 90.2}
{"compound": "C=CCc1c(OCC(=O)c2ccc(Cl)cc2)c(OC)cc2oc3ccccc3c(=O)c12 [Compound 6e]", "α-Glucosidase Inhibition (%) at 400 µM": 98.6}
{"compound": "COC(=O)/C(=C/N(C)C)Oc1cc2c(=O)c3ccccc3oc2cc1OC [Compound 5]", "α-Glucosidase Inhibition (%) at 400 µM": 15.2}
{"compound": "COc1cc2oc3ccccc3c(=O)c2cc1OCCCCBr [Compound 9a]", "α-Glucosidase Inhibition (%) at 400 µM": 97.8}
{"compound": "C=CCc1c(O)c(OC)cc2oc3ccccc3c(=O)c12 [Compound 7]", "α-Glucosidase Inhibition (%) at 400 µM": 75.5}
{"compound": "COc1cc2oc3ccccc3c(=O)c2cc1OCC(C)=O [Compound 6b]", "α-Glucosidase Inhibition (%) at 400 µM": 9.3}
{"compound": "COC(=O)COc1cc2c(=O)c3ccccc3oc2cc1OC [Compound 6a]", "α-Glucosidase Inhibition (%) at 400 µM": 99.5}

###

molecular target: α-amylase (Sus scrofa); construct: purchased Sigma-Aldrich; host or cells: porcine pancreas; experiment: α-Amylase inhibition assay (starch/DNS); type: biochemical, porcine; settings: 100 µM; mean ± SD, n = 4; NI = no inhibition

{"compound": "C=CCc1c(O)c(OC)cc2oc3ccccc3c(=O)c12", "censoring.sign": "=", "inhibition at 100 µM (%)": 7.8}
{"compound": "C=CCc1c(OCC(=O)c2ccc(Cl)cc2)c(OC)cc2oc3ccccc3c(=O)c12", "censoring.sign": "=", "inhibition at 100 µM (%)": 60.3}
{"compound": "COC(=O)/C(=C/N(C)C)Oc1cc2c(=O)c3ccccc3oc2cc1OC", "censoring.sign": "<", "inhibition at 100 µM (%)": 0}
{"compound": "C=CCc1c(OCC(O)Cn2ccnc2-c2ccccc2)c(OC)cc2oc3ccccc3c(=O)c12 (centres unmarked) [Compound 12e]", "censoring.sign": "=", "inhibition at 100 µM (%)": 2.4}
{"compound": "C=CCc1c(OCC2CO2)c(OC)cc2oc3ccccc3c(=O)c12 (centres unmarked) [Compound 11b]", "censoring.sign": "=", "inhibition at 100 µM (%)": 7.8}
{"compound": "COc1cc2oc3ccccc3c(=O)c2cc1OCC1CO1 (centres unmarked) [Compound 11a]", "censoring.sign": "<", "inhibition at 100 µM (%)": 0}
{"compound": "C[C@H]1O[C@H](O[C@H]2[C@H](O)[C@@H](O)[C@@H](O[C@H]3[C@H](O)[C@@H](O)C(O)O[C@@H]3CO)O[C@@H]2CO)[C@H](O)[C@@H](O)[C@@H]1N[C@H]1C=C(CO)[C@@H](O)[C@H](O)[C@H]1O (some centres unmarked) [Acarbose, acarbose, reference compound]", "censoring.sign": "=", "inhibition at 100 µM (%)": 99.3}
{"compound": "COc1cc2oc3ccccc3c(=O)c2cc1OCCCCn1ccnc1-c1ccccc1 [Compound 10b]", "censoring.sign": "=", "inhibition at 100 µM (%)": 9.7}
{"compound": "COc1cc2oc3ccccc3c(=O)c2cc1OCC(O)Cn1ccnc1-c1ccccc1 (centres unmarked) [Compound 12b]", "censoring.sign": "=", "inhibition at 100 µM (%)": 8.7}
{"compound": "C=CCc1c(OCC(O)Cn2ccnc2-c2ccc(Cl)cc2)c(OC)cc2oc3ccccc3c(=O)c12 (centres unmarked) [Compound 12f]", "censoring.sign": "=", "inhibition at 100 µM (%)": 4.7}
{"compound": "COc1cc2oc3ccccc3c(=O)c2cc1OCC(O)Cn1ccnc1 (centres unmarked) [Compound 12a]", "censoring.sign": "<", "inhibition at 100 µM (%)": 0}
